# TARGET_DESC: Fyn (UniProt P06241)
# Sequence (P06241 whole entry, looked up): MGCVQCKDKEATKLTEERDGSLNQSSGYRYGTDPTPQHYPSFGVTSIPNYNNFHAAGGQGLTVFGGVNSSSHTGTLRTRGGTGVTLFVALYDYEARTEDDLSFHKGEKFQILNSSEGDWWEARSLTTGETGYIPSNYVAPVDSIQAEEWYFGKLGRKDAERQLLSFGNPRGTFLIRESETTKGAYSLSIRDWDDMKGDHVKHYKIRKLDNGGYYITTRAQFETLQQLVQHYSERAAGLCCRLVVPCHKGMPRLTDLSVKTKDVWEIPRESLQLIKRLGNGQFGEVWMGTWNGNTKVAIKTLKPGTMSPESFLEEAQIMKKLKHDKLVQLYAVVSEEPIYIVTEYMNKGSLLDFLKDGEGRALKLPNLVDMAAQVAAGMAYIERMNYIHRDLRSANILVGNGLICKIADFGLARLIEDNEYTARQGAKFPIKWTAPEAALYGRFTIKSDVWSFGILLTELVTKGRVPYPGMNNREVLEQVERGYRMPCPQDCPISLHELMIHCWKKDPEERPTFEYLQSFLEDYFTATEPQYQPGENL
# PROTOCOL_DESCRIPTION: phosphorylation enrichment, bacterial display (enrichment ratio); higher = better substrate or ligand; peptides without Tyr show the background
So basically: phosphorylation enrichment at 0.5 or higher? That is Fulfilled. Lower than 0.5? That is Not fulfilled.

Req: Has FDNPVCQKTTE [LDLR_Y828_Y828C] a recorded phosphorylation enrichment greater than or equal to 0.5?
Resp: Fulfilled

Req: Confirm if phosphorylation enrichment reported for the sequence VFPATYHPDHW [EFCAB12_Y544_YF] is 0.5 or above.
Resp: Not fulfilled

Req: Threshold query (phosphorylation enrichment >= 0.5) on VLALWYYYLTN [ZDHHC23_Y127_H132N]
Resp: Fulfilled

Req: Can YCRITYDIFPF [INTS13_Y67_M66T] be said to have phosphorylation enrichment at or above 0.5?
Resp: Fulfilled

Req: Entry FKNGDYSEVMK [LCT_Y1638_N1639S] : is its phosphorylation enrichment no less than 0.5?
Resp: Not fulfilled

Req: Tell me whether phosphorylation enrichment is at least 0.5 here: TCFDKYTGNTF [FN1_Y101_YF]
Resp: Fulfilled

Req: hey, is phosphorylation enrichment for this one >= 0.5? FKRAVYCIIGR [NUP93_Y391_YF]
Resp: Fulfilled

Req: Could you verify whether the entry VTAALYGCLFE [BTD_Y536_R538C_YF] shows phosphorylation enrichment of no less than 0.5?
Resp: Fulfilled

Req: Could you verify whether the entry FYLGAYDRFLP [SLC22A5_Y486_V481F] shows phosphorylation enrichment of no less than 0.5?
Resp: Fulfilled

Req: Does phosphorylation enrichment meet or surpass 0.5 for DRLASYLDKLR [KRT12_Y139_V143L] ?
Resp: Not fulfilled

Req: Test whether the sequence FDEFRYRSVIK [CFTR_Y517_YF] records phosphorylation enrichment of 0.5 or higher.
Resp: Not fulfilled

Req: Hi, just wondering whether LAGRYYALRSM [CKB_Y174_K177R] shows phosphorylation enrichment of 0.5 or higher.
Resp: Fulfilled

====

I'd appreciate it if you could supply SH2 binding enrichment values for the items below.
# TARGET_DESC: Grb2 SH2 (UniProt P62993)
# Sequence (P62993 whole entry, looked up): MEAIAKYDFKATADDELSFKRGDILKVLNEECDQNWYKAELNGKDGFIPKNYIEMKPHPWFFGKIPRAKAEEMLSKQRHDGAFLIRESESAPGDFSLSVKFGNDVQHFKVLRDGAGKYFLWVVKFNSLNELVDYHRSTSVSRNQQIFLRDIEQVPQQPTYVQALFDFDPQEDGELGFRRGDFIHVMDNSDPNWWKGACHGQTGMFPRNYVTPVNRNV
# PROTOCOL_DESCRIPTION: SH2 binding enrichment of the phosphorylated peptide, bacterial display (enrichment ratio); higher = better substrate or ligand; peptides without Tyr show the background
Respond using a number only.

Req: Look up SH2 binding enrichment of SDVCMYRKNTY [SYNE2_Y570_I574T] and report it.
Resp: 0.796

Req: Please give the documented SH2 binding enrichment of ANAFIYVVQLP [L1CAM_Y420_YF]
Resp: 0.85

Req: Answer with the recorded SH2 binding enrichment for the sequence listed here: QFKGKYLAKHN [CASK_Y712_D710G_YF]
Resp: 1.29

Req: Report SH2 binding enrichment for SSPQPYLVPFL [TAF4_Y652]
Resp: 0.86

Req: Tell me measured SH2 binding enrichment for ADKSVYLMGLN [MYH7_Y386_A385V] please.
Resp: 0.92

Req: Specify measured SH2 binding enrichment for LKGQVYILGLE [ASS1_Y359_R363L] .
Resp: 0.935

Req: For QFQEKYKQVEQ [HCN4_Y531_YF] , write its SH2 binding enrichment.
Resp: 0.624

Req: Return SH2 binding enrichment (reported value) for this sequence: IKNFKYGIEEH [GJA1_Y137_K134N]
Resp: 0.865

Req: Using known records, supply SH2 binding enrichment for ELANLYHHVCM [BICD2_Y538]
Resp: 0.673

Req: Tell me measured SH2 binding enrichment for ALTRSYIREKV [CYP2C8_Y243] please.
Resp: 0.655

Req: Please report the measured SH2 binding enrichment for IHTDAYVRAMT [RPE65_Y89_R85H]
Resp: 0.76

Req: For EPGSLYGCGGG [ATM_Y2019_D2016G] , write its SH2 binding enrichment.
Resp: 1.24

Req: Specify SH2 binding enrichment for TPGPNYRPGYN [USH2A_Y463] and stop.
Resp: 0.671

Req: Using known records, supply SH2 binding enrichment for LERYIYNRQEF [HLA-DPB1_Y59_E62Q]
Resp: 0.812

Req: Return SH2 binding enrichment for the following sequence: PSQRRYVFFFS [PTEN_Y174_YF]
Resp: 1.3

Req: Fill in reported SH2 binding enrichment for this entry: LGIDRYHAIVF [NPSR1_Y147_S143G_YF]
Resp: 0.851

Req: Input TVHCDYLNIPH [TAF1L_Y1385] , output reported SH2 binding enrichment.
Resp: 2.18

Req: Consider the sequence PSQRPYVYYYS [PTEN_Y174_R173P] and give its recorded SH2 binding enrichment.
Resp: 1.61

Req: Find the measured SH2 binding enrichment of GIYKDYYRYNF [PLA2G2D_Y85_S80G] and report it.
Resp: 1.13

Req: Give the value of SH2 binding enrichment reported for the following: LLILEYAKYGS [RET_Y806_V804L]
Resp: 1.37

Req: Report measured SH2 binding enrichment; entry is LYNQDYPIHCV [GATM_Y227_S231C]
Resp: 0.902

Req: Fill in SH2 binding enrichment for record GARGRYIMGGP [TNK1_Y277_V278I]
Resp: 0.811

Req: # return recorded SH2 binding enrichment for entry MAFDRYAAICS [OR8H2_Y123_H120Y_YF]
Resp: 0.853

Req: Using the record for RGRSTCYWPRP [GAGE12J_Y9_Y9C] , state its measured SH2 binding enrichment.
Resp: 0.642

Req: // Input: FLLRVYSIFSK [SGCE_Y38_T36R] . Output its SH2 binding enrichment only.
Resp: 2.26

Req: Please look at this sequence and report its SH2 binding enrichment: NHFKRYNLCAE [PTEN_Y68_I67R_YF]
Resp: 0.949

Req: Name the recorded SH2 binding enrichment of the item FKGKKYKPLDL [RPL35_Y78_YF] in your answer.
Resp: 0.849

Req: Query SH2 binding enrichment for RLAKTYETTLE [ALB_Y377]
Resp: 0.834

Req: Respond only with SH2 binding enrichment recorded for KDFETYQSFQN [CTNND2_Y1157_P1159S_YF]
Resp: 0.846

Req: For the sequence SGPRCYTIAAL [TTR_Y125_R124C] , give its measured SH2 binding enrichment value.
Resp: 0.808

Req: Look up and state reported SH2 binding enrichment for VHNLDYFKETT [FGFR3_Y647_K650E_YF]
Resp: 1.11

Req: For the sequence MGSFNYLGFAW [SPTLC2_Y178_R183W_YF] , give its reported SH2 binding enrichment.
Resp: 0.676

Req: Could you please provide reported SH2 binding enrichment for PNQRRYVFFFS [PTEN_Y174_S170N_YF] ? Thanks!
Resp: 1.14

Req: Dear colleague, please send me the reported SH2 binding enrichment for FIGCIYLYLTK [GARS1_Y414_R412C] when you can.
Resp: 1.51

Req: Name the recorded SH2 binding enrichment of the sequence listed here: PNRILYGDFWQ [MYH6_Y717_R721W]
Resp: 0.807

Req: Write down SH2 binding enrichment measured for item AAVDTVCRHNY [HLA-DRB1_Y107_Y107V]
Resp: 0.788

Req: Assign SH2 binding enrichment to the following record: KVDKECEVRVR [GHR_Y226_Y226C]
Resp: 0.889

Req: Give the reported value of SH2 binding enrichment for this record: VDGSVYELHPS [GCK_Y413_K414E]
Resp: 0.944

Req: Tell me SH2 binding enrichment reported for QMVGMYASFFM [AVPR2_Y124_S127F_YF]
Resp: 0.642

Req: Report measured SH2 binding enrichment; entry is GVFSRHFTTFD [CLCA1_Y661_Y661H_YF]
Resp: 0.674

Req: Look up SH2 binding enrichment of QSSALYEDCYL [ASS1_Y83_R86C] and report it.
Resp: 0.863

Req: Name the recorded SH2 binding enrichment of the item RHPYFYAPELL [ALB_Y174] in your answer.
Resp: 1.34

Req: Give a short answer stating reported SH2 binding enrichment for KRIKSYNQEND [RPGRIP1L_Y448_L447S] .
Resp: 0.711

Req: State, in one line, measured SH2 binding enrichment of LTYHMYADPNF [SOS1_Y618]
Resp: 0.955

Req: Determine from records and report SH2 binding enrichment for GADDSYFTARS [ZAP70_Y492_YF]
Resp: 0.723

Req: Please report the measured SH2 binding enrichment for IKNPQYFSDAC [NTRK1_Y496_E492K]
Resp: 0.909

Req: Provide measured SH2 binding enrichment value, entry: GRQVIYTENER [GPR143_Y231_G229V]
Resp: 0.729

Req: Identify the reported SH2 binding enrichment for the following entry. TNFPLYLRSLE [MTM1_Y71_R69P_YF]
Resp: 0.883

Req: Find the measured SH2 binding enrichment of NFRRGYHLQVL [CD200R1L_Y138_H135R] and report it.
Resp: 0.847

Req: Could you please provide reported SH2 binding enrichment for TLSGTYQYIIA [FOXL2_Y81_I80T] ? Thanks!
Resp: 0.828

Req: Determine its reported SH2 binding enrichment: KVMANYVYKAG [MAML2_Y513_M514V]
Resp: 0.874

Req: Supply reported SH2 binding enrichment belonging to this sequence: CSSGGYEPRGR [FUS_Y239_R234C]
Resp: 0.887

Req: Consider the sequence QQLQGYVPSNF [FRK_Y99_I100V_YF] and give its recorded SH2 binding enrichment.
Resp: 1.03

Req: Quickly give me recorded SH2 binding enrichment for TVFSDYLHPQY [CCPG1_Y569]
Resp: 0.88

Req: Provide SH2 binding enrichment value for the following sequence: WIPIQCPIISE [NOG_Y222_Y222C]
Resp: 0.871

Req: For the sequence KLIMEYLPYGS [JAK2_Y931] , give its measured SH2 binding enrichment value.
Resp: 0.845
